These measurements were taken from patent US20180327367A1.

# Test system: SpsB (Staphylococcus aureus signal peptidase) (Staphylococcus aureus, UniProt P0A070)
# Construct: This assay uses a suspension of Staphylococcus aureus cells as a source of SpsB instead of recombinant SpsB protein; endogenous in cells; host or cells: S. aureus, USA300 background, overexpressing SpsB (whole-cell suspension from frozen pellets)
# Sequence (P0A070 whole entry): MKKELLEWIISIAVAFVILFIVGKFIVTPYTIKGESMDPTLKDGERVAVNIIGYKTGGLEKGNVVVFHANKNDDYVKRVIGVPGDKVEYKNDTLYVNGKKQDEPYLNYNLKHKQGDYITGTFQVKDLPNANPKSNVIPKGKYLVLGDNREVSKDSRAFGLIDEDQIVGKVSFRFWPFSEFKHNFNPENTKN
# Run description: cell-based
# Format: biochemical
# Measurement context: SpsB IC50, whole-cell S. aureus (USA300 background, overexpressing SpsB) as SpsB source; fluorogenic peptide substrate, kinetic read 30 min
# Protocol: A kinetic fluorogenic enzyme activity assay was used to assess inhibition of SpsB (Staphylococcus aureus signal peptidase) activity and IC50s were determined. This assay uses a suspension of Staphylococcus aureus cells as a source of SpsB instead of recombinant SpsB protein. Cell preparation: Luria broth (LB) was inoculated with S. aureus (USA300 background, overexpressing SpsB) and shaken at 37° C. until an OD600 nm of 1.5-2.0 was reached (˜4 hr). […]
Value kind: pIC50
By convention, pIC50 is the negative base-10 log of a molar concentration.

Q) Report pIC50 for CCCCCc1ccc(CNCCC(=O)N(C)[C@@H]2C(=O)N[C@@H](C)C(=O)N[C@H](C(=O)NCC#N)Cc3ccc(OCCN)c(c3)-c3cc2ccc3OCCN)c(C)c1 please.
A) 9.09

Q) Same question, Cc1cc(/C=C/c2ccccc2)ccc1C(=O)N[C@@H](CCN)C(=O)N(C)[C@@H]1C(=O)N[C@@H](C)C(=O)N[C@H](C(=O)NCC#N)Cc2ccc(OCCN)c(c2)-c2cc1ccc2OCCN this time
A) 9.09

Q) Try this molecule next: CCCCCCCC(=O)N[C@@H](CCN)C(=O)N(C)[C@@H]1C(=O)N[C@@H](C)C(=O)N[C@H](C(=O)NCC#N)Cc2ccc(OCCN)c(c2)-c2cc1ccc2OCCN
A) 8.40

Q) Now consider C[C@@H]1NC(=O)[C@@H](N(C)C(=O)[C@H](CO)NC(=O)c2ccc(-c3ccc(Cl)cc3)nc2)c2ccc(OCCN)c(c2)-c2cc(ccc2OCCN)C[C@@H](C(=O)NCC#N)NC1=O and answer again.
A) 8.15

Q) Moving on to CCCCc1ccc(-c2ccc(C(=O)N[C@@H](CN)C(=O)N(C)[C@@H]3C(=O)N[C@@H](C)C(=O)N[C@H](C(=O)NCC#N)Cc4ccc(OCCC)c(c4)-c4cc3ccc4OCCN)cc2)cc1
A) 8.08

====

Would you mind telling me the reported MIC of each entry?
# Tested on: Escherichia coli ATCC 25922
# Run description: Minimum inhibitory concentration, broth micro-dilution (CLSI), E. coli
# Format: cell-based
# Measurement context: Escherichia coli, ATCC25922, 22 h, read-out: MIC (μg/mL) E. coli, E. coli ATCC 25922; 35° C., 22 hours

Q) Given C[C@@H]1NC(=O)[C@@H](N(C)C(=O)[C@H](CCCCN)NC(=O)Cc2ccc(-c3ccc(Cl)cc3)cc2)c2ccc(OCCN)c(c2)-c2cc(ccc2OCCN)C[C@@H](C(=O)NCC#N)NC1=O [Compound 117] , state its recorded MIC.
A) > 64 µg/mL

Q) Subsequent entry: CCCCCCCCCCNCCS(=O)(=O)N[C@@H](CCO)C(=O)N(C)[C@@H]1C(=O)N[C@@H](C)C(=O)N[C@H](C(=O)NCC#N)Cc2ccc(OCCN)c(c2)-c2cc1ccc2OCCN [Compound 348]
A) > 64 µg/mL

Q) Please give the result for C[C@@H]1NC(=O)[C@@H](N(C)C(=O)[C@H](CCCCN)NC(=O)c2ccc(-c3ccc(Cl)cc3)cc2)c2ccc(O)c(c2)-c2cc(ccc2O)C[C@@H](C(=O)NCC#N)NC1=O [Compound 416] too.
A) > 64 µg/mL
